test system: RXF 393; experiment: cells; format: functional, cell-based; details: Homo sapiens;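 further: growth inhibition of human RXF 393 cells, read out with a cell viability assay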
Description: SANGER: Inhibition of human RXF393 cell growth in a cell viability assay.
pIC50: −log10 of the molar value.
readout.name: pIC50

Fill in: pIC50 of "COc1cc(Nc2c(C#N)cnc3cc(OCCCN4CCN(C)CC4)c(OC)cc23)c(Cl)cc1Cl" is ___
< 5.70

Fill in: pIC50 of CC(O)(CS(=O)(=O)c1ccc(F)cc1)C(=O)Nc1ccc(C#N)c(C(F)(F)F)c1 (stereo not drawn) [BICALUTAMIDE] is ___
< 5.99

Fill in: pIC50 of "Cc1[nH]c(/C=C2\C(=O)Nc3ccc(S(=O)(=O)Cc4c(Cl)cccc4Cl)cc32)c(C)c1C(=O)N1CCC[C@@H]1CN1CCCC1" is ___
< 5.70
